For each of the molecules below, state its ED50.
System: rats
Protocol details: Tail-Flick test (analgesia, rat)
Assay type: in vivo
Recorded conditions: po, per os, dose prolonging reaction time by 50%
Numbers only, in mg/kg.

Molecule: COc1cccc(C(O)CC2CCCN2C)c1 (stereo not shown) [Compound 3]
Measured on: rats
Unit tag: mg/kg
Val: 7

Molecule: CN1CCOC(c2ccccc2)c2ccccc2C1 (stereo not shown) [Compound 2, nefopam, reference compound]
Measured on: rats
Unit tag: mg/kg
Val: 10

Molecule: CCC(=O)O[C@](Cc1ccccc1)(c1ccccc1)[C@H](C)CN(C)C [Compound 1, dextropropoxyphene, reference compound]
Measured on: rats
Unit tag: mg/kg
Val: 25

Please look at the following molecule next.
q: # get_value(readout='ED50', item= Cc1cccc(C(O)CC2CCCN2C)c1 (stereo not shown) [Compound 6] )
a: 10

* * *

Protocol details: Determination of the lethal effect (LD50, oral, mouse)
Recorded conditions: in vivo, per os, 48 hours observation
Measured parameter: LD50 at 48 h (mg/kg)
Numbers only, in mg/kg.

In the examples that follow, each entry is paired with its recorded LD50 at 48 h.
Compound: COc1cccc(C(O)CC2CCCN2C(C)C)c1 (stereo not shown) [Compound 9]
LD50 at 48 h / mg/kg: 340
--
Compound: CCC(=O)O[C@](Cc1ccccc1)(c1ccccc1)[C@H](C)CN(C)C [Compound 1, dextropropoxyphene, reference compound]
LD50 at 48 h / mg/kg: 140
--
Compound: COc1cccc([C@H](O)C[C@H]2CCCN2C)c1 (relative stereo) [Compound 5]
LD50 at 48 h / mg/kg: 490

Quick request: LD50 at 48 h for each listed item, please.
1. COc1cccc([C@@H](C[C@@H]2CCCN2C)OC(C)=O)c1 (relative stereo) [Compound 13]
2. CN1CCCC1CC(O)c1cccc(Cl)c1 (stereo not shown) [Compound 11]

a:
1: 440; 2: 330

Quick request: LD50 at 48 h for each listed item, please.
1. Cc1cccc(C(O)CC2CCCN2C)c1 (stereo not shown) [Compound 6]
2. Cc1cccc([C@H](O)C[C@@H]2CCCN2C)c1 (relative stereo) [Compound 7]

a:
1. 420
2. 300

Quick request: LD50 at 48 h for each listed item, please.
1. CN1CCCC1CC(O)c1cccc(O)c1 (stereo not shown) [Compound 10]
2. CCCCCCN1CCCC1CC(O)c1cccc(OC)c1 (stereo not shown) [Compound 12]

a:
[420, 180]

Quick request: LD50 at 48 h for each listed item, please.
1. COc1cccc([C@H](O)C[C@@H]2CCCN2C)c1 (relative stereo) [Compound 4]
2. COc1cccc(C(O)CC2CCCN2C)c1 (stereo not shown) [Compound 3]
3. CN1CCOC(c2ccccc2)c2ccccc2C1 (stereo not shown) [Compound 2, nefopam, reference compound]
4. Cc1cccc([C@H](O)C[C@H]2CCCN2C)c1 (relative stereo) [Compound 8]

a:
1. 420
2. 600
3. 180
4. 320
